target-desc: T1, TNFR1 (Homo sapiens, UniProt P19438)
T1 chain: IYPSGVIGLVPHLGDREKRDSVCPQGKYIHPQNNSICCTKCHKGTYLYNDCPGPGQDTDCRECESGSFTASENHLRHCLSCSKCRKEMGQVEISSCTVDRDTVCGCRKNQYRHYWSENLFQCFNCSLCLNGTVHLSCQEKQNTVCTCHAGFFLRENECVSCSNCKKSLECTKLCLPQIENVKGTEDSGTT
procedure-text: yeast display SC50
quantity-name: apparent Kd (screen) (nM)

[
  {
    "binder": "E7K (designed binder) SMEEEVKKAAKEYEKKKKEAIEKHLEKLKAKDKEAAERFLKELEEAAKEYAKDEAKTMSEEEAKRRAKKYKEKVLLSELSEEEQKEIKEAEEKLVRTILKYVEEAAK",
    "apparent Kd (screen) (nM)": 4.39
  },
  {
    "binder": "I87Y (designed binder) SMEEEVEKAAKEYEKKKKEAIEKHLEKLKAKDKEAAERFLKELEEAAKEYAKDEAKTMSEEEAKRRAKKYKEKVLLSELSEEEQKEYKEAEEKLVRTILKYVEEAAK",
    "apparent Kd (screen) (nM)": 12.5
  }
]

(1) L99N (designed binder) SMEEEVEKAAKEYEKKKKEAIEKHLEKLKAKDKEAAERFLKELEEAAKEYAKDEAKTMSEEEAKRRAKKYKEKVLLSELSEEEQKEIKEAEEKLVRTINKYVEEAAK
(2) A9N (designed binder) SMEEEVEKNAKEYEKKKKEAIEKHLEKLKAKDKEAAERFLKELEEAAKEYAKDEAKTMSEEEAKRRAKKYKEKVLLSELSEEEQKEIKEAEEKLVRTILKYVEEAAK
Out of 1 and 2 , name the one with the higher apparent Kd (screen). Reply with the label of the item you choose.
1
